Assay: qHTS profiling for inhibitors of Plasmodium falciparum proliferation (AID 504749); further: potency means the concentration at half of the fitted maximal effect; nearly all actives have a fitted effect of over 60% in size
Details: P. falciparum in erythrocytes, SYBR Green DNA, 72 h; parasite line B
Inconclusive results are not listed. Active and inactive are the calls of the source. The call rests on the fitted dose curve; in most records, active means well fitted inhibition curve with a large enough effect; inconclusive means small, poorly fitted or top-dose-only effect; inactive means flat fitted curve, though single readings scatter.
assayEndpoint: Potency

In [3]: df
Out[3]:
                                   compound          measured
0  COC(=O)C1=C(C)NC(C)=C(C(=O)OCCN2CCN(C(c3ccccc3)c3ccccc3)CC2)C1c1cccc([N+](=O)[O-])c1 (centres undefined)  3980 nM (active)
1  COC(=O)C[C@](O)(CCCC(C)(C)O)C(=O)O[C@@H]1C(OC)=C[C@]23CCCN2CCc2cc4c(cc2[C@H]13)OCO4  25.1 nM (active)
2  CC[C@H]1CN2CCc3cc(OC)c(OC)cc3[C@H]2C[C@@H]1C[C@@H]1NCCc2cc(OC)c(OC)cc21   282 nM (active)
3  Nc1ccn([C@@H]2O[C@H](CO)[C@H](O)C2(F)F)c(=O)n1   316 nM (active)

* * *

Test: qHTS Screen of the MIPE 4.0 Collection Against Ewings Sarcoma (RDES) (AID 1259252); further: nearly all actives have a fitted effect of over 35% in size
Conditions: RD-ES Ewing sarcoma viability, CellTiter-Glo, 48 h; series mostly up to 45.8 µM
Records with an inconclusive call do not appear. Activity calls are given as the source filed them. Calls follow the shape of the dose curve; as a rule, active = well fitted inhibition curve with a large enough effect; inconclusive = small, poorly fitted or top-dose-only effect; inactive = no such curve, though single readings can be large or run the other way.
Labels: active, inactive

>>> df
                                  smilesdata  classification
 0  Clc1cccc(-n2nnnc2NCc2ccccc2Oc2ccccn2)c1Cl        inactive
 1  CCCCOc1c(C(=O)c2c(F)cc(C)cc2F)cnc2n[nH]cc12          active
 2  Nc1nc(-c2nn(Cc3ccccc3F)c3ncccc23)nc(N)c1N1CCOCC1        inactive
 3     CCNC(=O)Nc1ccc2ncc(Nc3ccc(C)cc3)nc2n1          active
 4  CCCNC(=O)Nc1ccc(Oc2ncnc3cc(OC)c(OC)cc23)cc1Cl        inactive
 5  COc1cc2nccc(Oc3ccc(NC(=O)C4(C(=O)Nc5ccc(F)cc5)CC4)cc3)c2cc1OC          active
 6       Clc1ccc2ncc(-c3cccc(NC4CNC4)n3)n2c1          active
 7  COc1cc(C(C)C)c2c(c1)S(=O)(=O)N(COc1cc(=O)n3cccc(OCCN4CCCCC4)c3n1)C2=O          active
 8  CC(C)c1ccccc1Cc1cc(C(=O)Nc2ccc(S(=O)(=O)c3ccccc3C(C)(C)C)cc2)c(O)c(O)c1O          active
 9  O=C(O)c1ccc2cc(-c3ccc(O)c(C45CC6CC(CC(C6)C4)C5)c3)ccc2c1          active
10  COC(=O)C[C@](O)(CCCC(C)(C)O)C(=O)O[C@@H]1C(OC)=C[C@]23CCCN2CCc2cc4c(cc2[C@H]13)OCO4        inactive
11  Cc1cccc(C=NNc2cc(N3CCOCC3)nc(OCCc3ccccn3)n2)c1          active
12  CC=CC1=C(C(=O)O)N2C(=O)[C@H](NC(=O)[C@H](N)c3ccc(O)cc3)[C@@H]2SC1        inactive
13  Cc1nc2ccc(CN(C)c3ccc(C(=O)N[C@@H](CCC(=O)O)C(=O)O)s3)cc2c(=O)[nH]1          active
14  CCc1c2c(nc3ccc(O)cc13)-c1cc3c(c(=O)n1C2)COC(=O)[C@]3(O)CC          active
15  Cc1cc(N2CCOCC2)cc2[nH]c(-c3c(NC[C@@H](O)c4cccc(Cl)c4)cc[nH]c3=O)nc12          active
16         OCc1ccc(-c2ccc(-c3ccc(CO)s3)o2)s1          active
17  COC(=O)c1ccc2c(C(=Nc3ccc(N(C)C(=O)CN4CCN(C)CC4)cc3)c3ccccc3)c(O)[nH]c2c1          active
18  Cc1nc(Nc2n[nH]c3c2CN(C(=O)N[C@H](CN(C)C)c2ccccc2)C3(C)C)c2sccc2n1          active
